# Target system: Calmodulin-1 (Homo sapiens) (UniProt P0DP23)
# Assay explanation: calcium-bound CALM1 binders on microarrays, profiling panel, artefact control for SMM control-protein annotation, biochemical, small-molecule microarray, Cy5-labelled CALM1, plus calcium (AID 1112);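 further: score merges spot fluorescence with signal to noise from triplicate slides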
# Measurement setup: Cy5-CALM1 binding fluorescence, higher = more signal
Measure: composite z-score
Give a plain numeric answer without units written out.

Return the recorded composite z-score value; entry: COC(=O)c1c(CC[C@@H](CO)NC(=O)N[C@H](Cn2cc(-c3cncn3C)nn2)C(C)C)oc(C(C)=O)c1C(=O)OC
-0.333

Return the recorded composite z-score value; entry: COc1ccc([Si](C)(C)[C@@H]2[C@@H](CCO)O[C@]3(C(=O)N(Cc4ccc(NC(=O)[C@H](C)O)cc4)c4ccccc43)[C@H]2C)cc1
-0.0051

Return the recorded composite z-score value; entry: O=C(NCc1ccccc1)c1ccc(Br)cc1[N+](=O)[O-]
0.321

Return the recorded composite z-score value; entry: C=CCC(OC(C)=O)[C@@H]1[C@@H](N(Cc2ccc(-c3cccc(C(F)(F)F)c3)o2)C(=O)Cc2ccc(F)cc2)c2cc(OCCCO)ccc2N1C(=O)c1ccc(-c2ccccc2)cc1 (stereo not given in full)
0.671

Return the recorded composite z-score value; entry: O=C1c2ccccc2[C@](Cc2ccccc2I)(C(=O)NCC(F)(F)F)[C@H](c2ccc(CO)cc2)N1Cc1ccccc1C(F)(F)F
0.296

----------
Exercise: for every item that follows, state its recorded composite Z-score.
# Assay explanation: small-molecule microarray binders of probe aXIP, primary screen, biochemical, NeuroSMM set, 635/667 nm fluorescence (AID 1119);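 further: probe is the protein aXip251-270 applied at 1 µg/mL to compound-printed slides; binding of probe to printed compounds measured as 667 nm fluorescence plus signal to noise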
# Measurement setup: higher = more signal, called active from +8 up or from −8 down
Give a plain numeric answer without units written out.

Return the recorded composite Z-score value; entry: C=CCNC(=O)[C@H]1[C@@H]2C(=O)O[C@@H](c3ccccc3)[C@@H](c3ccccc3)N2[C@@H](c2ccccc2OCCO)[C@]12C(=O)N(C(=O)OCCOC)c1ccc(C#CCNC(N)=O)cc12
-0.0888

Return the recorded composite Z-score value; entry: CCCC/C=C/[C@H]([C@@H](O)Cc1ccccc1)N(CC#Cc1ccccc1)Cc1ccccc1Br
0.911

Return the recorded composite Z-score value; entry: C=C(C)[C@@H]1CC=C(C(O)C2C=CC3C(=O)NC(=O)C3N2Nc2ccccn2)CC1 (some centres not stated)
0.804

Return the recorded composite Z-score value; entry: COc1ccc([C@H]2C[C@H]3C(Br)=C[C@]2(OC)C(=O)[C@]32CO2)cc1
-0.145

Return the recorded composite Z-score value; entry: COc1cccc([C@@H]2[C@@H](C)CC[C@H]3C(=O)N4[C@H](c5cccc(OC)c5)[C@@H](C)CC[C@H]4C(=O)N23)c1
-0.155

Return the recorded composite Z-score value; entry: Cc1cc(C)c(C(O)C2C=CC3C(=O)N(C)C(=O)C3N2N2CCCCC2)c(C)c1 (configuration not stated)
1.16

Return the recorded composite Z-score value; entry: CCOC(=O)C[C@H]1[C@H](OC(=O)c2ccccc2-c2ccccc2)[C@@H](NC(=O)C2CCCCC2)c2cc(OCCCO)ccc2N1C(=O)c1ccccc1
0.909

----------
# System: Plasmodium falciparum Sir2 (PF13_0152, Sir2A)
# Assay explanation: pfSir2 binders on small-molecule microarrays, primary screen, biochemical, small-molecule microarray, 635 nm fluorescence (AID 1098);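 further: score merges spot fluorescence intensity with its signal-to-noise ratio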
# Measurement setup: small-molecule microarray binding, fluorescence 635 nm; higher = more signal
Mark No for composite z-score values under 0.3, and Yes for everything at or above.

Answer whether composite z-score of O=C(CS)NCCCCCNC(=O)[C@H]1C[C@H]2C(=O)N3CCC[C@H]3C(=O)N2[C@H]1c1ccc(O)cc1 is greater than or equal to 0.3.
No

Answer whether composite z-score of CC(C)CN1C(=O)[C@@]2(Cc3ccccc31)c1ccccc1C(=O)N(C1CCCCC1)[C@H]2c1ccc(CO)cc1 is greater than or equal to 0.3.
No

Answer whether composite z-score of CC1=C([C@H](O)CCc2ccccc2)[C@H](CO)[C@@H]2C(=O)N(Cc3ccccc3)C(=O)[C@@H]2C1 is greater than or equal to 0.3.
No

Answer whether composite z-score of C=CC[C@]1(C(N)=O)N=C(c2ccc(OCCCO)cc2)O[C@H]1c1ccccc1CN=[N+]=[N-] is greater than or equal to 0.3.
No

Answer whether composite z-score of C=C(COC)/C(=C/C[C@H](OC(C)=O)c1ccc(OCCO)cc1)c1cnc2ccccc2c1 is greater than or equal to 0.3.
No

Answer whether composite z-score of O=C1c2ccccc2[C@](Cc2ccccc2I)(C(=O)O)[C@H](c2ccc(CO)cc2)N1C1CCCCC1 is greater than or equal to 0.3.
Yes

Answer whether composite z-score of C=CCc1cccc([C@@H]2[C@@H](C)CC[C@H]3C(=O)N4[C@H](c5cccc(CC=C)c5)[C@@H](C)CC[C@H]4C(=O)N23)c1 is greater than or equal to 0.3.
Yes

Answer whether composite z-score of [N-]=[N+]=NCc1ccccc1C[C@@]1(C(=O)N2CCOCC2)N=C(c2ccc(OCCCO)cc2)O[C@@H]1c1ccccc1N=[N+]=[N-] is greater than or equal to 0.3.
Yes

Answer whether composite z-score of C=C(COC)/C(=C/C[C@@H](OC(=O)c1ccncc1)c1ccc(OCCO)cc1)c1cc(C(=O)OC)ccc1OC is greater than or equal to 0.3.
Yes

Answer whether composite z-score of CCN1C(C)=C(C(=O)OC)[C@@H](c2ccccc2)N2C(=O)[C@](O)(C(=O)OC)[C@@H](c3ccccc3)C(C(C)=O)=C12 is greater than or equal to 0.3.
No

----------
# Assay explanation: E. coli acrAB mutant growth effects, primary screen, E. coli filamentation inducers, strain DRC39, OD650, 48 h (AID 1179);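 further: screen aims at cell division blockers that make cells filament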
# Measurement setup: E. coli DRC39 delta-acrAB growth, higher = more signal, called active from +8 up or from −8 down
# class assignment by measured z-score: low (below 0.1), moderate (0.1 to below 0.5), high (0.5 or more)

Determine which band this molecule sits in: CC(C)N1CC=CC23O[C@@H]4/C=C\CCCOC(=O)C4[C@H]2C(=O)N(CCO)[C@@H]3C1=O (stereo partly specified)
high

Determine which band this molecule sits in: Cc1ccc(S[C@]2(C(=O)NCCCN(C)C)CC(=O)N(Cc3ccccc3)[C@@H]2c2ccc(CO)cc2I)cc1
low

Determine which band this molecule sits in: CC(C)C[C@@H]1NC(=O)[C@H]2C[C@@H](C(=O)NCCCCCC[N+](C)(C)C)[C@@H](c3ccc(O)cc3)N2C1=O
moderate

Determine which band this molecule sits in: Cc1ccc(S[C@]2(C(=O)NC(C)C)CC(=O)N(Cc3cc(C(F)(F)F)cc(C(F)(F)F)c3)[C@@H]2c2ccc(CO)cc2I)cc1
high

Determine which band this molecule sits in: CCOC(=O)C1=CCC(c2cccc3ccccc23)N(S(=O)(=O)c2ccc(C)cc2)C1 (stereo unspecified)
low

Determine which band this molecule sits in: COC(=O)c1ccc(C#CC(NP(=O)(c2ccccc2)c2ccccc2)c2ccccc2)cc1 (stereo unspecified)
moderate

Determine which band this molecule sits in: CC1CC/C=C\[C@H]2OC34C=CCN(Cn5nnc6ccccc65)C(=O)[C@H]3N(C(C)CO)C(=O)[C@@H]4C2C(=O)O1 (stereo partly specified)
high

Determine which band this molecule sits in: COC(=O)[C@@]1(Cc2ccc(OC)cc2)[C@H]2c3cc(C(=O)N(C)C)n(Cc4ccc(C)c(F)c4F)c3C[C@H]2CN1C(=O)c1ccccc1
low

Determine which band this molecule sits in: CO[C@H]1COC(=O)[C@H](C)COC(=O)[C@H](Cc2ccccc2)NC(=O)CC=C[C@H]1C
moderate

Determine which band this molecule sits in: CO[C@H]1COC(=O)[C@H](CCSC)NC(=O)CC=C[C@@H](C)COC(=O)[C@@H](OCc2ccccc2)C=C[C@@H]1C
moderate

Determine which band this molecule sits in: CCCC=C(CCC)[C@@H](NC(=O)c1ccc(C(F)(F)F)cc1)c1ccccc1
low

Determine which band this molecule sits in: CC(=O)NCCCC[C@@H]1NC(=O)[C@@H]2C[C@H](C(=O)NCc3ccc(F)cc3)[C@H](c3cccc(OCCO)c3)N2C1=O
low

Determine which band this molecule sits in: CCCC=C(CCC)[C@@H](NC(=O)c1ccccc1)c1ccccc1
moderate

Determine which band this molecule sits in: CCCN1C(=O)[C@@]2(CCS(=O)(=O)c3ccccc3)N=C(c3ccc(OCCCO)cc3)O[C@H]2c2ccccc21
moderate

Determine which band this molecule sits in: C#CCCCON=C1C[C@@H](O)[C@@H](O)[C@@H]2[C@@H]3C(=O)N(Cc4ccc5c(c4)OCO5)C(=O)[C@@H]3CC[C@H]12
high

Determine which band this molecule sits in: C=CCNC(=O)[C@H]1[C@@H]2C(=O)O[C@@H](c3ccccc3)[C@@H](c3ccccc3)N2[C@@H](c2ccccc2OCCO)[C@]12C(=O)N(C(=O)OCCOC)c1ccc(C#CCC(C(=O)OC)C(=O)OC)cc12
high
